- test method notes: Evaluation of conversion rate to active form in buffer solution (Experimental Example 1)
- Type: physicochemical
- condition: pH5.0, 1 hr, 37° C., 25 umol/L in buffer solution
I'd appreciate it if you could supply Residual rate values for the items below.
Write down the numeric answer in % and omit the unit.

## Task Tell me measured Residual rate for CCCN(C[C@H]1CCCCN1)C(=O)Oc1cc(O)c2c(=O)cc(-c3ccccc3Cl)oc2c1[C@H]1CCN(C)C[C@H]1O [Example 6] please.
## Result 98.7

## Task Quick one: give measured Residual rate for CN1CC[C@H](c2c(OC(=O)N(CCCC(F)(F)F)CC3CCCCN3)cc(O)c3c(=O)cc(-c4ccccc4Cl)oc23)[C@H](O)C1 (stereo partly drawn) [Example 14]
## Result 53.0

## Task Give Residual rate for COCCN(CC1CCCCN1)C(=O)Oc1cc(O)c2c(=O)cc(-c3ccccc3Cl)oc2c1[C@H]1CCN(C)C[C@H]1O (stereo partly drawn) [Example 12]
## Result 79.6

## Task Provide only the value of recorded Residual rate for CCNC(=O)Oc1cc(O)c2c(=O)cc(-c3ccccc3Cl)oc2c1[C@H]1CCN(C)C[C@H]1O [Comparative Example 1, reference compound]
## Result 41.5

## Task Entry CN1CC[C@H](c2c(OC(=O)N(CCC(F)(F)F)CC3CCCCN3)cc(O)c3c(=O)cc(-c4ccccc4Cl)oc23)[C@H](O)C1 (stereo partly drawn) [Example 13] needs its Residual rate filled in; supply it.
## Result 80.3

## Task Read the entry CCCN(CC1CCCCN1)C(=O)Oc1cc(O)c2c(=O)cc(-c3ccccc3Cl)oc2c1[C@H]1CCN(C)C[C@H]1O (stereo partly drawn) [Example 9] and write its reported Residual rate.
## Result 95.6

## Task For the compound CC(C)N(CC1CCCCN1)C(=O)Oc1cc(O)c2c(=O)cc(-c3ccccc3Cl)oc2c1[C@H]1CCN(C)C[C@H]1O (stereo partly drawn) [Example 10] , give its reported Residual rate.
## Result 90.8

## Task Give the reported value of Residual rate for this record: CN1CC[C@H](c2c(OC(=O)N(CCF)CC3CCCCN3)cc(O)c3c(=O)cc(-c4ccccc4Cl)oc23)[C@H](O)C1 (stereo partly drawn) [Example 11]
## Result 81.3

## Task Answer with reported Residual rate of CCN(CCC1CCCCN1)C(=O)Oc1cc(O)c2c(=O)cc(-c3ccccc3Cl)oc2c1[C@H]1CCN(C)C[C@H]1O (stereo partly drawn) [Example 16]
## Result 86.4

## Task Check the records and state Residual rate for CCN(C[C@@H]1CCCCN1)C(=O)Oc1cc(O)c2c(=O)cc(-c3ccccc3Cl)oc2c1[C@H]1CCN(C)C[C@H]1O [Example 1, ditrifluoroacetate]
## Result 98.1

## Task In one line, give reported Residual rate of the entry CN1CC[C@H](c2c(OC(=O)N(Cc3ccccc3)CC3CCCCN3)cc(O)c3c(=O)cc(-c4ccccc4Cl)oc23)[C@H](O)C1 (stereo partly drawn) [Example 15] .
## Result 94.7

## Task // Input: CN1CC[C@H](c2c(OC(=O)N(C)C[C@@H]3CCCCN3)cc(O)c3c(=O)cc(-c4ccccc4Cl)oc23)[C@H](O)C1 [Example 3] . Output its Residual rate only.
## Result 98.7
